Listed below: Plant response rating, Oat, Wild values for each entry.
# Tested on: oat, wild
# procedure-summary: Test C pre-/postemergence herbicide test
# Type: in vivo, Avena fatua
# test-settings: Postemergence; 250 g ai/ha; scale 0 to 100 (0 no effect, 100 complete control)
Respond numerically, and do not add a unit to the figure.

| molecule | measured-parameter | meas-value |
| --- | --- | --- |
| O=C1NC[C@H](c2cccc(C(F)(F)F)c2)[C@H]1C(=O)Nc1cccc(F)c1F [Compound 206] | Plant response rating, Oat, Wild | 50 |

So what Plant response rating, Oat, Wild did Cc1ccccc1NC(=O)C1C(=O)NCC1c1cccc(C(F)(F)F)c1 (racemic) [Compound 109] get with oat, wild?
0

So what Plant response rating, Oat, Wild did CN1CC(c2ccc(C(F)(F)F)cc2)C(C(=O)Nc2cccc(F)c2F)C1=O (centres unmarked) [Compound 306] get with oat, wild?
5

So what Plant response rating, Oat, Wild did CN1CC(c2ccc(F)c(F)c2)C(C(=O)Nc2cccc(F)c2F)C1=O (centres unmarked) [Compound 303] get with oat, wild?
0

So what Plant response rating, Oat, Wild did O=C1NCC(c2ccc(F)cc2)C1C(=O)Nc1ccc(F)c(F)c1F (racemic) [Compound 120] get with oat, wild?
0

----------
# System: ryegrass, Italian
# procedure-summary: Test D pre-/postemergence herbicide test
# Type: in vivo, Lolium multiflorum
# test-settings: Preemergence; 31 g ai/ha; scale 0 to 100 (0 no effect, 100 complete control)
measured-parameter: Plant response rating, Ryegrass, Italian
Respond numerically, and do not add a unit to the figure.

| molecule | system-name | meas-value |
| --- | --- | --- |
| O=C1NCC(c2ccc(F)c(C(F)(F)F)c2)C1C(=O)Nc1cccc(F)c1F (racemic) | ryegrass, Italian | 15 |
| O=C1NCC(c2ccc(Cl)c(F)c2)C1C(=O)Nc1cccc(F)c1F (stereo not drawn) | ryegrass, Italian | 0 |
| O=C1NCC(c2cc(F)c(F)cc2F)C1C(=O)Nc1cccc(F)c1F (stereo not drawn) | ryegrass, Italian | 0 |
| O=C1NCC(c2ccc(C(F)(F)F)cc2)C1C(=O)Nc1cccc(F)c1F (stereo not drawn) | ryegrass, Italian | 0 |
| O=C1NC[C@H](c2cccc(C(F)(F)F)c2)[C@H]1C(=O)Nc1cccc(F)c1F | ryegrass, Italian | 35 |

# next molecule below
Can you share its Plant response rating, Ryegrass, Italian? I mean this molecule: O=C1NCC(c2ccc(F)c(F)c2)C1C(=O)Nc1ccccc1C(F)(F)F (racemic)
0

----------
# Tested on: kochia
# procedure-summary: Test C pre-/postemergence herbicide test
# Format: in vivo, Kochia scoparia
# test-settings: Postemergence; 250 g ai/ha; scale 0 to 100 (0 no effect, 100 complete control)
# Source text: […]
measured-parameter: Plant response rating, Kochia

| molecule | Plant response rating, Kochia |
| --- | --- |
| O=C1NCC(c2ccc(C(F)(F)F)cc2)C1C(=O)Nc1cccc(F)c1F (racemic) [Compound 202] | 80 |
| O=C1NCC(c2ccc(F)c(F)c2)C1C(=O)Nc1ccc(F)c(F)c1F (stereo not drawn) [Compound 346] | 40 |
| Cc1c(F)cccc1NC(=O)C1C(=O)NCC1c1ccc(F)c(F)c1 (racemic) [Compound 106] | 35 |
| O=C1NC[C@H](c2cccc(C(F)(F)F)c2)[C@H]1C(=O)Nc1cccc(F)c1F [Compound 206] | 70 |

Can you share its Plant response rating, Kochia? I mean this molecule: O=C1NCC(c2cc(F)c(F)cc2F)C1C(=O)Nc1cccc(F)c1F (stereo not drawn) [Compound 50]
0

Can you share its Plant response rating, Kochia? I mean this molecule: O=C1NC[C@H](c2cccc(C(F)(F)F)c2)[C@H]1C(=O)Nc1ccccc1F [Compound 204]
40
